- assay-target: UniProtKB P09598
- Sequence (P09598 39-283 limits assumed): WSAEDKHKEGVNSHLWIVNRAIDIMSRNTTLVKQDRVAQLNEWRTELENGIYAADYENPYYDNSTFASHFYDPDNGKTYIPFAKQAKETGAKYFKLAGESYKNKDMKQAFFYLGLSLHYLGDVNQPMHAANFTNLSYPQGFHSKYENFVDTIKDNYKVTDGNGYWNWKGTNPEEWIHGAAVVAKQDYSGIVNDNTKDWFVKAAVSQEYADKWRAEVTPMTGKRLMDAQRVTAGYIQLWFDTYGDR
parameter-measured: IC50 (µM)

> print(dat)
                                   molecule      assay.target  parameter.measured  measured.number
1  S=C([S-])OC1CC2CC1C1CCCC21.[K+] (stereo not shown) [D609]  UniProtKB P09598                IC50               34
